Hello, the source for this data is ChEMBL document CHEMBL1201862, in case you need it.

- Test system: T47D
- TEST_DETAILS: NCI tumour cell line growth inhibition, 48 h
Calls of active or inactive are those of the source. Cut-off read from the data, not from the text of the source: active = GI50 up to about 1.1 µM and inactive = higher.
Select the correct class. Options are active, inactive and nothing else.

Solved entries (count: 8):
- O=C1C(CN(Cc2ccccc2)Cc2ccccc2)CCCC1CN(Cc1ccccc1)Cc1ccccc1 (stereo unspecified): inactive
- CCOP(=O)(OCC)/C(C#N)=C\c1cccc2ccccc12: inactive
- CC(C)(C)OC(=O)N1CCC2(CC1)C(=O)NCN2c1ccccc1: inactive
- CC(=O)OCCn1cnc2nc(Nc3ccccc3)nc(Cl)c21: inactive
- COC(=O)CCC(C)[C@H]1CCC2C3C(C[C@H](OC(C)=O)[C@@]21C)[C@@]1(C)CCC2(C[C@H]1C[C@H]3OC(C)=O)OOC1(CCCC1)OO2 (stereo partly specified): inactive
- O=C1CC(=O)NC(NN2C(=O)CSC2c2ccccc2)=N1 (stereo unspecified): inactive
- CC(C)N(C(=O)C1(O)c2ccccc2C=Cc2ccccc21)C(C)C: inactive
- COc1ccc(CCc2ccc(O)c(C(=O)O)c2)cc1OC: inactive

IN: Please state the recorded outcome for this compound: Cc1ccc2ccc(=O)oc2c1
OUT: inactive

IN: One more compound: C/C(=N\NC(=S)Nc1ccccc1)c1nc2cccnc2[nH]1
OUT: active

IN: One more compound: COCC1OC(N2C(=O)NC(=O)[C@@H]3C=C4CCCCC4=C[C@@H]32)C(OC)C1OC (stereo partly specified)
OUT: inactive
